Please provide measured IC50 for the entries that follow.
system: Plasmodium falciparum; assay: Antiplasmodial activity against chloroquine-sensitive Plasmodium falciparum IMT031; format: functional, organism-based
Answers are plain numbers, in µM.

Known IC50 results, listed for orientation:
CCC(C)(C)C(=O)O[C@H]1C[C@@H](C)C=C2C=C[C@H](C)[C@H](CC[C@@H](O)C[C@@H](O)CC(=O)O)[C@H]21 = 36.9
CC(C)c1c(C(=O)Nc2ccccc2)c(-c2ccccc2)c(-c2ccc(F)cc2)n1CC[C@@H](O)C[C@@H](O)CC(=O)O = 5.3
CC[C@H](C)C(=O)O[C@H]1C[C@@H](C)C=C2C=C[C@H](C)[C@H](CC[C@@H](O)C[C@@H](O)CC(=O)O)[C@H]21 = 57.8

The value of IC50 recorded for CC(C)n1c(/C=C/C(O)CC(O)CC(=O)O)c(-c2ccc(F)cc2)c2ccccc21 (centres undefined) [FLUVASTATIN SODIUM] when tested on Plasmodium falciparum reads 87.1

###

system: Plasmodium falciparum; assay: Antiplasmodial activity against chloroquine-resistant Plasmodium falciparum Bre1; type: functional, organism-based; details: Plasmodium falciparum, Bre1
Please provide measured pIC50 for the entries that follow.
Answers are plain numbers, as −log10 of the molar value.

I'm hoping you can list pIC50 for every compound here, please.
1. CC(C)c1c(C(=O)Nc2ccccc2)c(-c2ccccc2)c(-c2ccc(F)cc2)n1CC[C@@H](O)C[C@@H](O)CC(=O)O
2. CC(C)n1c(/C=C/C(O)CC(O)CC(=O)O)c(-c2ccc(F)cc2)c2ccccc21 (stereo unspecified) [FLUVASTATIN SODIUM]
3. CC[C@H](C)C(=O)O[C@H]1C[C@@H](C)C=C2C=C[C@H](C)[C@H](CC[C@@H](O)C[C@@H](O)CC(=O)O)[C@H]21
4. CCC(C)(C)C(=O)O[C@H]1C[C@@H](C)C=C2C=C[C@H](C)[C@H](CC[C@@H](O)C[C@@H](O)CC(=O)O)[C@H]21

5.24
4.03
4.28
4.32
